IC50, Macrophage colony-stimulating factor 1 receptor (Homo sapiens, UniProt P07333), per-entry values.
Give bare numbers, in nM.

# example entries with known answers
structure_notation=Cc1ccc(NC(=O)c2ccc(CN3CCN(C)CC3)cc2)cc1-c1ccc2c(N)noc2c1 tested_system="Macrophage colony-stimulating factor 1 receptor (Homo sapiens, UniProt P07333)" measured_value=90
structure_notation=Cc1ccc(NC(=O)c2ccnc(N3CCCC3)c2)cc1-c1ccc2c(C3CCNCC3)noc2c1 tested_system="Macrophage colony-stimulating factor 1 receptor (Homo sapiens, UniProt P07333)" measured_value=7000
structure_notation=Cc1ccc(NC(=O)c2ccc(CN3CCN(C)CC3)cc2)cc1-c1ccc2ccncc2c1 tested_system="Macrophage colony-stimulating factor 1 receptor (Homo sapiens, UniProt P07333)" measured_value=4
structure_notation=Cc1ccc(C(=O)NC2CC2)cc1-c1ccc2ccncc2c1 tested_system="Macrophage colony-stimulating factor 1 receptor (Homo sapiens, UniProt P07333)" measured_value=600
structure_notation=Cc1nnc(-c2ccc(-c3cc(NC(=O)c4ccc(CN5CCN(C)CC5)cc4)ccc3C)c(C)c2)o1 tested_system="Macrophage colony-stimulating factor 1 receptor (Homo sapiens, UniProt P07333)" measured_value=100

Would you be so kind as to report IC50 for each listed record?
1. Cc1ccc(NC(=O)c2ccc(CN3CCN(C)CC3)cc2)cc1-c1ccc(-c2csc(N)n2)cc1
2. Cc1nnc(-c2ccc(-c3cc(C(=O)Nc4cccc(N5CCOCC5)c4)ccc3C)c(C)c2)o1

90
700

###

Tested system: Dual specificity mitogen-activated protein kinase kinase 1 (Homo sapiens, UniProt Q02750)
Sequence (Q02750 whole entry): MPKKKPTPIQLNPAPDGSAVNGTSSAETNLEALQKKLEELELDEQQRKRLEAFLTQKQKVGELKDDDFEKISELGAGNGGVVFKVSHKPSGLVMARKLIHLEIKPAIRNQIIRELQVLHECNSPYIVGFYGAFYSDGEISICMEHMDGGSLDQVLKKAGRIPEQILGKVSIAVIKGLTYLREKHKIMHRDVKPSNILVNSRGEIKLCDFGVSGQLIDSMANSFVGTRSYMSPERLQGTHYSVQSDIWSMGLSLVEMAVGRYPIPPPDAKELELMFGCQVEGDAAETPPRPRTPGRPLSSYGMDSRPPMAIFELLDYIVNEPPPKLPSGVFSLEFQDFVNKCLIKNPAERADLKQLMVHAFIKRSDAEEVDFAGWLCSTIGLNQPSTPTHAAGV
Protocol description: Inhibition of MEK1 by cRaf/mek/Erk cascade assay
I'd appreciate it if you could supply IC50 values for the items below.
Answers are plain numbers, in nM.

Would you be so kind as to report IC50 for each listed record?
1. Cc1ccc(C(=O)Nc2cccc(N3CCOCC3)c2)cc1-c1ccc2c(C3CCNCC3)noc2c1
2. Cc1nnc(-c2ccc(-c3cc(NC(=O)c4ccnc(N5CCCC5)c4)ccc3C)c(C)c2)o1
3. Cc1nnc(-c2ccc(-c3cc(C(=O)NC4CC4)ccc3C)c(C)c2)o1
4. Cc1nnc(-c2ccc(-c3cc(C(=O)Nc4cccc(N5CCOCC5)c4)ccc3C)c(C)c2)o1

1: 40; 2: 200; 3: 20000; 4: 400

###

Tested system: Mitogen-activated protein kinase 14 (Homo sapiens, UniProt Q16539)
Sequence (Q16539 whole entry): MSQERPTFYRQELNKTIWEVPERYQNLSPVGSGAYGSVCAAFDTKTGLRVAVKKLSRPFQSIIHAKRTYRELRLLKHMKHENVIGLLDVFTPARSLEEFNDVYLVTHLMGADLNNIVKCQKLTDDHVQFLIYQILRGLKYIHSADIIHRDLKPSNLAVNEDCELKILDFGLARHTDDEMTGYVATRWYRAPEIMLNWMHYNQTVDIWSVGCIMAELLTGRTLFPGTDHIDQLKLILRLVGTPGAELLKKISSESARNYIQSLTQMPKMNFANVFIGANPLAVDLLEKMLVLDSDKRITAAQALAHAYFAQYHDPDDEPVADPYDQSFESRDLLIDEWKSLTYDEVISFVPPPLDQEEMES
Protocol description: Displacement of fluorescent ATP competitive ligand from p38alpha
I'd appreciate it if you could supply log10 of Ki values for the items below.
Give log10 of Ki, with Ki taken in nM.

structure_notation=Cc1ccc(C(=O)NC2CC2)cc1-c1ccc2c(=O)cc(-c3cccs3)oc2c1 quantity="log10 of Ki" measured_value=0.83

Would you be so kind as to report log10 of Ki for each listed record?
1. CCCCn1c(=O)[nH]c2cc(-c3cc(NC(=O)c4ccnc(N5CCCC5)c4)ccc3C)ccc2c1=O
2. Cc1nc(-c2ccc(-c3cc(C(=O)Nc4cccc(N5CCOCC5)c4)ccc3C)cc2)no1
3. Cc1ccc(C(=O)NC2CC2)cc1-c1ccc2ccncc2c1

1. 1.04
2. 1.23
3. 1.04

###

Tested system: Mitogen-activated protein kinase 14 (Homo sapiens, UniProt Q16539)
Protocol description: Displacement of fluorescent ATP competitive ligand from p38alpha
Quantity: pKi
Give bare numbers, as −log10 of the molar value.

# example entries with known answers
structure_notation=Cc1ccc(NC(=O)c2ccnc(N3CCCC3)c2)cc1-c1ccc2c(N)noc2c1 measured_value=7.92
structure_notation=Cc1ccc(C(=O)NC2CC2)cc1-c1ccc2c(=O)n(CC3CC3)nnc2c1 measured_value=8.22
structure_notation=Cc1ccc(NC(=O)c2ccnc(N3CCCC3)c2)cc1-c1ccc2nc(N)[nH]c(=O)c2c1 measured_value=8.17
structure_notation=Cc1ccc(NC(=O)c2ccnc(N3CCCC3)c2)cc1-c1ccc(-c2csc(N)n2)cc1 measured_value=8.17
structure_notation=Cc1ccc(C(=O)Nc2cccc(N3CCOCC3)c2)cc1-c1ccc2onc(C)c2c1 measured_value=6.42

Would you be so kind as to report pKi for each listed record?
1. Cc1ccc(C(=O)NC2CC2)cc1-c1ccc2c(C3CCNCC3)noc2c1
2. Cc1ccc(C(=O)Nc2cccc(N3CCOCC3)c2)cc1-c1ccc2c(N)noc2c1
3. CCCCn1c(=O)[nH]c2cc(-c3cc(NC(=O)c4ccc(CN5CCN(C)CC5)cc4)ccc3C)ccc2c1=O
4. Cc1ccc(C(=O)Nc2cccc(N3CCOCC3)c2)cc1-c1ccc2ccncc2c1
5. Cc1ccc(C(=O)NC2CC2)cc1-c1ccc2cccnc2c1
6. Cc1ccc(C(=O)Nc2cccc(N3CCOCC3)c2)cc1-c1ccc2[nH]ncc2c1

[8.40, 7.72, 5.70, 8.35, 6.31, 6.96]
